For each of the compounds below, state its Dose.FC.LYZ.NS.
Tested on: ENR+CD organoids (ISC to Paneth cell differentiation)
Assay: Primary screen: basal (non-stimulated) lysozyme secretion LYZ.NS, 2.5-D 384-well ENR+CD organoid differentiation
Type: cell-based, mouse
Settings: primary screen, dose 10.00 uM, FC relative to plate median
Text: High-throughput screening.
Counter-ions that a name gives are not always drawn.
Quick reminder: number only, in log2 fold change, skip the unit.

Query :: Value lookup for Dose.FC.LYZ.NS; key = N#CC[C@H](C1CCCC1)n1cc(-c2ncnc3[nH]ccc23)cn1 [Ruxolitinib (INCB018424), Ruxolitinib, reference compound]
Result :: 0.295

Query :: Any idea what its Dose.FC.LYZ.NS is? The compound is O=C(Nc1ccncc1)c1cc([N+](=O)[O-])ccc1Cl [T0070907]
Result :: −0.218

Query :: # input compound: COc1cc2c(cc1OC)CN(CCc1ccc(NC(=O)c3cc(OC)c(OC)cc3NC(=O)c3cnc4ccccc4c3)cc1)CC2 [Tariquidar] ; wanted: its Dose.FC.LYZ.NS
Result :: 0.034

Query :: Recorded Dose.FC.LYZ.NS of O=C(NC[C@H]1CN(c2ccc(N3CCOCC3=O)cc2)C(=O)O1)c1ccc(Cl)s1 [Rivaroxaban] , please.
Result :: −0.045

Query :: Recorded Dose.FC.LYZ.NS of C#CCC(Cc1cnc2nc(N)nc(N)c2n1)c1ccc(C(=O)N[C@@H](CCC(=O)O)C(=O)O)cc1 (some centres unmarked) [Pralatrexate] , please.
Result :: −0.148

Query :: Using the record for COc1cc2c(cc1OC)[C@@H]1Cc3ccc(OC)c(OC)c3CN1CC2 [Rotundine] , report its Dose.FC.LYZ.NS.
Result :: 0.126

Query :: Give the measured Dose.FC.LYZ.NS of Cc1ccc(C(=O)N(CCCN)[C@@H](c2oc3cc(Cl)ccc3c(=O)c2Cc2ccccc2)C(C)C)cc1 [SB743921] .
Result :: −0.238

Query :: So what's the measured Dose.FC.LYZ.NS for this one? CC(=O)OCC(=O)NCCCOc1cccc(CN2CCCCC2)c1 [Roxatidine Acetate HCl]
Result :: −0.061

Query :: Recorded Dose.FC.LYZ.NS for O=[N+]([O-])c1ccc2c(c1)S(=O)(=O)C=C2 [Stattic] , please?
Result :: −0.021

Query :: Give its Dose.FC.LYZ.NS value. Item: CCn1c(N)c(C(=O)NC)c(=O)c2ccc(C#C[C@@](C)(O)COC)nc21 [SAR131675]
Result :: −0.088

Query :: Find the recorded Dose.FC.LYZ.NS belonging to Cc1cc(NC(=O)Nc2ccc(N(C)C)cc2)c2cc(F)cc(F)c2n1 [SB408124] and report it.
Result :: −0.070

Query :: Fill blank: measured Dose.FC.LYZ.NS of the compound O=S(=O)(c1ccccc1)c1cnc2c(N3CCNCC3)cccc2c1 [SB742457] is ____.
Result :: 0.013

Query :: Given the compound Cl.NC(=O)c1cnc(N[C@@H]2CCCC[C@@H]2N)nc1Nc1cccc(-n2nccn2)c1 [PRT062607 (P505-15, BIIB057) HCl] , what is its reported Dose.FC.LYZ.NS?
Result :: −0.211

Query :: What measured Dose.FC.LYZ.NS goes with Cn1cnc2c(F)c(Nc3ccc(Br)cc3Cl)c(C(=O)NOCCO)cc21 [Selumetinib (AZD6244)] ?
Result :: −0.140

Query :: Data request, read-out Dose.FC.LYZ.NS, for CCc1nc(N)nc(N)c1-c1ccc(Cl)cc1 [Pyrimethamine]
Result :: −0.138

Query :: I am curious: what Dose.FC.LYZ.NS value has been reported for O=C1CC(=O)c2c(Cl)c(Cl)c(Cl)c(Cl)c21 [TCID] ?
Result :: −0.018

Query :: Can you look up the measured Dose.FC.LYZ.NS of C[S+]([O-])c1ccc(-c2nc(-c3ccc(F)cc3)c(-c3ccncc3)[nH]2)cc1 (centres unmarked) [SB203580] for me?
Result :: 0.023

src = patent US20220323406A1
